Target: recombinant human 15-PGDH (Homo sapiens)
Construct: purchased R&D Systems
Sequence (P15428 1-266): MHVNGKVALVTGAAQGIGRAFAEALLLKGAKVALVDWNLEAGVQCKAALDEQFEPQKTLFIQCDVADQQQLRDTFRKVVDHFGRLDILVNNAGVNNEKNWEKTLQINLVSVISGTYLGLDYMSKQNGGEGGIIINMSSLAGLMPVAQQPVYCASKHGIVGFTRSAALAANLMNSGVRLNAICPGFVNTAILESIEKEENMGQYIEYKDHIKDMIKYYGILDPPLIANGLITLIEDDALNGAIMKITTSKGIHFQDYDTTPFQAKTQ
Experiment: 15-PGDH enzyme inhibition test
Assay type: biochemical
Details: 4 nM recombinant human 15-PGDH, 30 μM PGE2, 1 mM NAD+, 60 minutes after starting the reaction; read-out: IC50 Value
Collected IC50 values appear next to each entry.
property name: IC50

O=C(O)c1ccc(N2CCC[S+]([O-])c3cc(C(=O)N4CCCCC4)ccc32)cc1 (stereo not shown): > 100 nM
CCCCn1nc2cc(N3CCCc4cc(C(=O)N5CCCCC5)cnc43)ccn2c1=O: < 10 nM
COC(=O)C1CCCN(C(=O)c2cnc3c(c2)OCCN3c2ccn3c(=O)n(C)nc3c2)C1 (stereo not shown): < 10 nM
COc1ccc(N2CCOc3cc(C(=O)N4CCCCC4)cnc32)cc1: 10 to 100 nM
Cn1nc2cc(N3CCOc4cc(C(=O)N5CCC[C@@H]5C(=O)O)cnc43)ccn2c1=O: > 100 nM
Cn1nc2cc(N3CCN(c4ncc(Cl)s4)c4cc(C(=O)N5CCC(F)(F)CC5)cnc43)ccn2c1=O: < 10 nM
Cn1cnc2cc(N3CCCc4cc(C(=O)N5CCC(F)(F)CC5)cnc43)cnc2c1=O: < 10 nM
Cn1nc2cc(N3CCOc4cc(C(O)C5CCC(F)(F)CC5)cnc43)ccn2c1=O (stereo not shown): 10 to 100 nM
Cn1cnc2cc(N3CCCc4cc(C(=O)N5CCCCC5)cnc43)ccc2c1=O: < 10 nM
NC(=O)c1ccc(N2CCOc3cc(C(=O)N4CCCCC4)ccc32)nc1: < 10 nM
Cn1nnc(-c2ccc(N3CCCc4cc(C(=O)N5CCCCC5)cnc43)cc2)n1: < 10 nM
COc1cc2c(cc1C(=O)N1CCCCC1)OCCN2c1ccc(C(=O)O)cc1: 10 to 100 nM
CCn1nc2cc(N3CCCc4cc(C(=O)N5CCC[C@H](C(F)(F)F)C5)cnc43)ccn2c1=O: < 10 nM
CCN1CCN(c2ccn3c(=O)n(C)nc3c2)c2ncc(C(=O)N3CCC(F)(F)CC3)cc21: < 10 nM
CCn1nc2cc(N3CCCc4cc(C(=O)N5CCC(F)(F)C(C)C5)cnc43)ccn2c1=O (stereo not shown): < 10 nM
Cn1ccc2cc(N3CCOc4cc(C(=O)N5CCC(F)(F)CC5)cnc43)ccc2c1=O: < 10 nM

----------
target: recombinant human 15-PGDH (Homo sapiens, UniProt P15428); construct: purchased R&D Systems; experiment: 15-PGDH enzyme inhibition test; format: biochemical; conditions: 4 nM recombinant human 15-PGDH, 30 μM PGE2, 1 mM NAD+, 60 minutes after starting the reaction; read-out: IC50 Value
pIC50: −log10 of the molar value.
property name: pIC50

Cn1nc2cc(N3CCOc4cc(C(=O)N5CCC[C@@H](O)C5)cnc43)ccn2c1=O: > 8.00
C[C@H]1CCCN(C(=O)c2cnc3c(c2)OCCCN3c2ccn3c(=O)n(C)nc3c2)C1: > 8.00
NC(=O)Cn1nc2cc(N3CCOc4cc(C(=O)N5CCCCC5)cnc43)ccn2c1=O: > 8.00
O=C(O)c1ccc(N2CCSc3cc(C(=O)N4CCCCC4)ccc32)cc1: > 8.00
CCn1nc2cc(N3CCCc4cc(C(=O)N5CCC[C@H](C(F)F)C5)cnc43)ccn2c1=O: > 8.00
Cn1nc2cc(N3CCOc4cc(C(=O)N5CCC(F)(F)CC5)cnc43)ccn2c1=O: > 8.00
O=C(c1cnc2c(c1)OCCN2c1ccc2c(=O)[nH]ncc2c1)N1CCCCC1: > 8.00
CCn1nc2cc(N3CCOc4cc(C(=O)N5CCCCC5)cnc43)ccn2c1=O: > 8.00
Cn1nc2cc(N3CCOc4cc(C(=O)N5CCCCC5)cnc43)ccn2c1=O: > 8.00
CCn1nc2cc(N3CCCc4cc(C(=O)N5CCC(F)(F)CC5)cnc43)ccn2c1=O: > 8.00
CN1CCN(c2ccc(C(=O)O)cc2)c2ncc(C(=O)N3CCCCC3)cc21: > 8.00
CN1Cc2cc(N3CCOc4cc(S(=O)(=O)C5CCCCC5)cnc43)ccc2C1=O: 7.00 to 8.00
COC(=O)C1CN(C(=O)c2cnc3c(c2)OCCN3c2ccn3c(=O)n(C)nc3c2)C1: > 8.00
CS(=O)(=O)NCc1ccc(N2CCOc3cc(C(=O)N4CCCCC4)ccc32)cc1: > 8.00
O=C(O)c1ccc(N2CCOc3c2ccc(C(=O)N2CCCCC2)c3Cl)cc1: > 8.00
COc1cc(N2CCOc3cc(C(=O)N4CCCCC4)ccc32)ccc1C(=O)O: > 8.00
O=C(c1cnc2c(c1)CCCN2c1ccc2c(c1)CN(C1COC1)C2=O)N1CCC(F)(F)CC1: > 8.00
COCCn1nc2cc(N3CCCc4cc(C(=O)N5CCCCC5)cnc43)ccn2c1=O: > 8.00
Cn1nc2cc(N3CCOc4cc(C(=O)N5CCCCCCC5)sc43)ccn2c1=O: 7.00 to 8.00
O=C1NCc2cc(N3CCOc4cc(C(=O)N5CCC(F)(F)CC5)ccc43)ccc21: > 8.00
O=C(O)c1ccc(N2CCCSc3cc(C(=O)N4CCCCC4)ccc32)cc1: > 8.00
CCCn1nc2cc(N3CCCc4cc(C(=O)N5CCCCC5)cnc43)ccn2c1=O: > 8.00
Cn1nc2cc(N3CCOc4cc(C(=O)N5CCC[C@H]5C(N)=O)cnc43)ccn2c1=O: < 7.00
Cn1nc2cc(N3CCCCOc4cc(C(=O)N5CCCCC5)cnc43)ccn2c1=O: 7.00 to 8.00
COCCCNC(=O)c1cnc2c(c1)OCCN2c1ccn2c(=O)n(C)nc2c1: > 8.00
CN1Cc2cc(N3CCCc4cc(C(=O)N5CCCCC5)cnc43)cnc2C1=O: > 8.00
O=C(c1cnc2c(c1)OCCN2c1ccn2c(=O)n(Cc3cccnc3)nc2c1)N1CCCCC1: > 8.00
CC(C)(N)c1ccc(N2CCOc3cc(C(=O)N4CCCCC4)cnc32)cc1: < 7.00
Cn1nc2cc(N3CCCOc4cc(C(=O)N5CCCC5)cnc43)ccn2c1=O: > 8.00
COCCn1nc2cc(N3CCOc4cc(C(=O)N5CCC(F)(F)CC5)cnc43)ccn2c1=O: > 8.00
Cn1nc2cc(N3CCOc4cc(C(=O)N5CC(C)(F)C5)cnc43)ccn2c1=O: > 8.00
CN1CCN(c2ccn3c(=O)n(C)nc3c2)c2ncc(C(=O)N3CCCCC3)cc21: > 8.00
Cn1ccc2cc(N3CCCc4cc(C(=O)N5CCCCC5)cnc43)ccc2c1=O: > 8.00

Source of measurements: patent US12577217B2
